# System: 415267-285-R-J2-PDC complex spheroid viability
# assaySummary: Anticancer human tumor 415267-285-R-J2-PDC patient-derived breast carcinoma cell line growth inhibition [POLQ]
# testSettings: second compound 0.316 µM; first compound 3.16 µM; stronger effect = lower value
observationType: viability, T/C

CCCS(=O)(=O)Nc1ccc(F)c(C(=O)c2c[nH]c3ncc(-c4ccc(Cl)cc4)cc23)c1F + Cc1cccc(N(C)C(=O)C2C(O)CCN2c2nc(C)cc(C(F)(F)F)c2C#N)c1	97.7%
O=c1[nH]cc(F)c(=O)[nH]1 + Cc1cccc(N(C)C(=O)C2C(O)CCN2c2nc(C)cc(C(F)(F)F)c2C#N)c1	26.8%
C=CC(=O)N1CCN(c2nc(=O)n(-c3c(C)ccnc3C(C)C)c3nc(-c4c(O)cccc4F)c(F)cc23)C(C)C1 (stereo not drawn) + Nc1ccc(C#CCN(C(=O)Cc2ncc(C(F)(F)F)cc2C(F)(F)F)c2ccc(F)cc2)nn1	98.2%

----------
# System: 415267-285-R-J2-PDC complex spheroid viability
# assaySummary: Anticancer human tumor 415267-285-R-J2-PDC cell line growth inhibition [POLQ];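 note: luminescence used as stand-in measure of viable cells; spheroids exposed to compounds for one week before readout; 100% = DMSO vehicle control viability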
# testSettings: second compound 0.316 µM; first compound 1 µM; stronger effect = lower value
observationType: viability, T/C (%)

C=CC(=O)N1CCN(c2nc(=O)n(-c3c(C)ccnc3C(C)C)c3nc(-c4c(O)cccc4F)c(F)cc23)C(C)C1 (stereo unspecified) + Nc1ccc(C#CCN(C(=O)Cc2ncc(C(F)(F)F)cc2C(F)(F)F)c2ccc(F)cc2)nn1	93
COc1cc(C2c3cc4c(cc3C(OC3OC5COC(C)OC5C(O)C3O)C3COC(=O)C23)OCO4)cc(OC)c1O (stereo unspecified) + Cc1cccc(N(C)C(=O)C2C(O)CCN2c2nc(C)cc(C(F)(F)F)c2C#N)c1	7.66
CCc1cc2c(N3CCc4c(cc(Cn5ccnc5)cc4-c4cn(C)nc4C(F)(F)F)C3=O)cc(C)nc2c(OC)n1 + COC1C(OC(N)=O)C(O)C(Oc2ccc3c(O)c(NC(=O)c4ccc(O)c(CC=C(C)C)c4)c(=O)oc3c2C)OC1(C)C	69.5
CC1COCCN1c1cc(-c2ccnn2C)c2ccnc(-c3ccn[nH]3)c2n1 (stereo unspecified) + Cc1cccc(N(C)C(=O)C2C(O)CCN2c2nc(C)cc(C(F)(F)F)c2C#N)c1	4.19
COc1cc2cc(C(=O)CCC(=O)O)sc2cc1OC + Nc1ccc(C#CCN(C(=O)Cc2ncc(C(F)(F)F)cc2C(F)(F)F)c2ccc(F)cc2)nn1	89.9
CCc1cc2c(N3CCc4c(cc(Cn5ccnc5)cc4-c4cn(C)nc4C(F)(F)F)C3=O)cc(C)nc2c(OC)n1 + Nc1ccc(C#CCN(C(=O)Cc2ncc(C(F)(F)F)cc2C(F)(F)F)c2ccc(F)cc2)nn1	93.2
COc1cccc2c1C(=O)c1c(O)c3c(c(O)c1C2=O)CC(O)(C(=O)CO)CC3OC1CC(N)C(O)C(C)O1 (stereo unspecified) + COC1C(OC(N)=O)C(O)C(Oc2ccc3c(O)c(NC(=O)c4ccc(O)c(CC=C(C)C)c4)c(=O)oc3c2C)OC1(C)C	0.99
C#Cc1c(F)ccc2cc(O)cc(-c3ncc4c(N5CC6CCC(C5)N6)nc(OCC56CCCN5CC(F)C6)nc4c3F)c12 (stereo unspecified) + COC1C(OC(N)=O)C(O)C(Oc2ccc3c(O)c(NC(=O)c4ccc(O)c(CC=C(C)C)c4)c(=O)oc3c2C)OC1(C)C	95.3
O=C(Nc1ccc(O)c(NS(=O)(=O)c2ccc(F)cc2)c1)c1ccc(-c2ccccc2)cc1 + Cc1cccc(N(C)C(=O)C2C(O)CCN2c2nc(C)cc(C(F)(F)F)c2C#N)c1	101
CC(C)n1c(=O)n(C)c2cnc3cc(F)c(-c4ccc(OCCCN5CCCCC5)nc4)cc3c21 + COC1C(OC(N)=O)C(O)C(Oc2ccc3c(O)c(NC(=O)c4ccc(O)c(CC=C(C)C)c4)c(=O)oc3c2C)OC1(C)C	110
COc1cccc(OCCCN)c1-c1cc(Nc2cnc(C#N)cn2)n[nH]1 + Cc1cccc(N(C)C(=O)C2C(O)CCN2c2nc(C)cc(C(F)(F)F)c2C#N)c1	4.6
Nc1ccn(C2OC(CO)C(O)C2(F)F)c(=O)n1 (stereo unspecified) + Cc1cccc(N(C)C(=O)C2C(O)CCN2c2nc(C)cc(C(F)(F)F)c2C#N)c1	5.62
O=c1[nH]cc(F)c(=O)[nH]1 + COC1C(OC(N)=O)C(O)C(Oc2ccc3c(O)c(NC(=O)c4ccc(O)c(CC=C(C)C)c4)c(=O)oc3c2C)OC1(C)C	27.2
O=c1[nH]cc(F)c(=O)[nH]1 + Cc1cccc(N(C)C(=O)C2C(O)CCN2c2nc(C)cc(C(F)(F)F)c2C#N)c1	26.6
COc1cc2cc(C(=O)CCC(=O)O)sc2cc1OC + COC1C(OC(N)=O)C(O)C(Oc2ccc3c(O)c(NC(=O)c4ccc(O)c(CC=C(C)C)c4)c(=O)oc3c2C)OC1(C)C	98.6
C#Cc1c(F)ccc2cc(O)cc(-c3ncc4c(N5CC6CCC(C5)N6)nc(OCC56CCCN5CC(F)C6)nc4c3F)c12 (stereo unspecified) + Cc1cccc(N(C)C(=O)C2C(O)CCN2c2nc(C)cc(C(F)(F)F)c2C#N)c1	115
CC(C)n1c(=O)n(C)c2cnc3cc(F)c(-c4ccc(OCCCN5CCCCC5)nc4)cc3c21 + Nc1ccc(C#CCN(C(=O)Cc2ncc(C(F)(F)F)cc2C(F)(F)F)c2ccc(F)cc2)nn1	105
Nc1ccn(C2OC(CO)C(O)C2(F)F)c(=O)n1 (stereo unspecified) + COC1C(OC(N)=O)C(O)C(Oc2ccc3c(O)c(NC(=O)c4ccc(O)c(CC=C(C)C)c4)c(=O)oc3c2C)OC1(C)C	4.85
O=C(c1cc(Cc2n[nH]c(=O)c3ccccc23)ccc1F)N1CCN(C(=O)C2CC2)CC1 + Nc1ccc(C#CCN(C(=O)Cc2ncc(C(F)(F)F)cc2C(F)(F)F)c2ccc(F)cc2)nn1	114
CC1COCCN1c1cc(C2(O)CC3CCC(C2)O3)c2cnn(-c3ccn[nH]3)c2n1 (stereo unspecified) + Cc1cccc(N(C)C(=O)C2C(O)CCN2c2nc(C)cc(C(F)(F)F)c2C#N)c1	4.91
CCc1cc2c(N3CCc4c(cc(Cn5ccnc5)cc4-c4cn(C)nc4C(F)(F)F)C3=O)ccnc2c(OC)n1 + Nc1ccc(C#CCN(C(=O)Cc2ncc(C(F)(F)F)cc2C(F)(F)F)c2ccc(F)cc2)nn1	84.1
